Test system: A549 NSCLC
Assay: NCI tumour cell line growth inhibition, 48 h
For each entry below, report its TGI value.

Please go through the list and note TGI for each compound.
1. O=C(O)CCC(O)=C1S(=O)(=O)OCCOS1(=O)=O
2. COc1ccc(-n2cc(-c3cc(OC)c(OC)c(OC)c3)nc2SCc2cccc(C#N)c2)cc1OC
3. CCOC(=O)c1ccc(N=Cc2ccc(N(CCC#N)S(=O)(=O)c3ccccc3)cc2C)cc1
4. COc1ccc(-c2cc(=O)c3c(O)c(O)c(OC)cc3o2)cc1O

Data returned:
> 100 µM
> 100 µM
> 100 µM
> 100 µM

Data request: Please give the measured TGI for this compound: COc1ccc(C2CC(c3sc(Nc4ccc(C)cc4)nc3C)=NN2)cc1 (stereo not given)
Data returned: 33 µM
